- TARGET_OF_ASSAY: T1, human GIP receptor (human, UniProt P48546 22-466)
- T1 sequence (looked up): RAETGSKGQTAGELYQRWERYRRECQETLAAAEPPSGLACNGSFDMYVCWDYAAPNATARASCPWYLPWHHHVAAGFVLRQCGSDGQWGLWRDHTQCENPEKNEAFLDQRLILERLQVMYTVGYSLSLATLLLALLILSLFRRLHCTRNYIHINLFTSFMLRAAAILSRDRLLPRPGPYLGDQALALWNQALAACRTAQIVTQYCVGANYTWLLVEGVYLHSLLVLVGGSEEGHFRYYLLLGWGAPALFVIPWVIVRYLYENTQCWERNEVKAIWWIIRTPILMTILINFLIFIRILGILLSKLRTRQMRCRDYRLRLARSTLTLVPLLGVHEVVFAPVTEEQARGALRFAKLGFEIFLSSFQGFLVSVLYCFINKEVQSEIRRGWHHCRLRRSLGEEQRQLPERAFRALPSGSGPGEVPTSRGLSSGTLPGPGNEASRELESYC
- ASSAY_EXPLANATION: cell-based or functional assay
Non-standard residues stand in square brackets, D forms with d. No end group written: not given here. Aib = CC(C)(N)C(=O)O
MEASURE_NAME: EC50 CreLuc hGIPR 100% hP (nM)
Give your result in nM as a bare value.

Previously resolved entries follow.
BINDER: YXEGTFTSDYSIXLEKQAQXAFVEWLIKGGPSEYESLRHYYNWLTRQRY (Aib at 2, 13, 20; K28 side chain: C20DA-gGlu-gGlu-gGlu-gGlu-gGlu-gGlu-eLys; C-terminal NH2) [Compound 93]
MEASURE_NAME: EC50 CreLuc hGIPR 100% hP
READING: 2.35
//
BINDER: Y[Aib]EGTFTSDYSI[Aib]LEKQAQ[Aib]AFVQWLIKGGPSEPASLRHYYNWLTRQRY-NH2 (not fully specified (residue 28)) [Compound 101]
MEASURE_NAME: EC50 CreLuc hGIPR 100% hP
READING: 1.43
//
BINDER: YXEGTFTSDYSIXLEKQAQXAFVEWLIKGGPSSGASIRHYYNWLTRQRY (Aib at 2, 13, 20; K28 side chain: C20DA-gGlu-gGlu-gGlu-gGlu-gGlu-gGlu-eLys; C-terminal NH2) [Compound 132]
MEASURE_NAME: EC50 CreLuc hGIPR 100% hP
READING: 2.07
//
BINDER: YXEGTFTSDYSIXLEEQAQXAFVEWLIKGGPSSGASLRHYYNWLTRQRY (Aib at 2, 13, 20; K28 side chain: C20DA-gGlu-gGlu-gGlu-gGlu-gGlu-gGlu-eLys; C-terminal NH2) [Compound 116]
MEASURE_NAME: EC50 CreLuc hGIPR 100% hP
READING: 3.01
//
BINDER: YXEGTFTSDYSIXLESQAQXAFVEWLIKGGPSSGASLRHYYNWLTRQRY (Aib at 2, 13, 20; K28 side chain: C20DA-gGlu-gGlu-gGlu-gGlu-gGlu-gGlu-eLys; C-terminal NH2) [Compound 121]
MEASURE_NAME: EC50 CreLuc hGIPR 100% hP
READING: 7.29
//
BINDER: YXEGTFTSDYSIXLDKQAQXAFVEWLIKGGPSSGASLRHYYNWLTRQRY (Aib at 2, 13, 20; K28 side chain: C20DA-gGlu-gGlu-gGlu-gGlu-gGlu-gGlu-eLys; C-terminal NH2) [Compound 128]
MEASURE_NAME: EC50 CreLuc hGIPR 100% hP
READING: 0.9

Turning to the following binder.
**Q:** For the binder YXEGTFTSDLSIXLEKQAQXAFVEWLIKGGPSSGASLRHYYNWLTRQRY (Aib at 2, 13, 20; K28 side chain: C20DA-gGlu-gGlu-gGlu-gGlu-gGlu-gGlu-eLys; C-terminal NH2) [Compound 172] , give its reported EC50 CreLuc hGIPR 100% hP.
**A:** 1.83

All values here come from patent US20240247080A1.
